Data credit: the supplement of paper PMC9112550

# reported shrunken log2 fold change; entries follow
test system: Escherichia coli TOP10; test: shrunken log2 fold change of peptide-encoding DNA abundance (4.5 h post-induction vs induction); higher = less antimicrobial activity (less host growth inhibition); conditions: time post-induction: 4.5 h; library: site-saturation at positions 5, 18, 19, 20
Lab note: write the figure by itself, no unit.

RRIRNRPPRLPRPRPRPSQSPRP :: -0.169

Looking up "RRIRNRPPRLPRPRPRPHPLPRP" , I see its shrunken log2 fold change listed as -0.122

So for "RRIRCRPPRLPRPRPRPPDKPRP" , the logged shrunken log2 fold change turned out to be 0.0264

Quick note, shrunken log2 fold change for "RRIRGRPPRLPRPRPRPMNMPRP" landed at -0.318

shrunken log2 fold change recorded for this sequence, "RRIRFRPPRLPRPRPRPCPLPRP" , is -0.183

Lab note: measured shrunken log2 fold change of "RRIRSRPPRLPRPRPRPVNAPRP" was 0.319

====

system: Escherichia coli TOP10; experiment: shrunken log2 fold change of peptide-encoding DNA abundance (4.5 h post-induction vs induction); higher = less antimicrobial activity (less host growth inhibition); conditions: time post-induction: 4.5 h; library: site-saturation at positions 5, 18, 19, 20
Class (by shrunken log2 fold change) -- low interval (below -0.08), middle interval (-0.08 to below 0.05), high interval (0.05 or more)

RRIRTRPPRLPRPRPRPAINPRP :: middle interval
RRIRARPPRLPRPRPRPQRYPRP :: middle interval
RRIRHRPPRLPRPRPRPEDAPRP :: middle interval
RRIRLRPPRLPRPRPRPSVKPRP :: middle interval
RRIRDRPPRLPRPRPRPVFMPRP :: high interval

Ask: Which class is correct for the following sequence? "RRIRQRPPRLPRPRPRPPYGPRP"
Reply: low interval

Ask: Class (by measured shrunken log2 fold change) for "RRIRERPPRLPRPRPRPKSFPRP"
Reply: middle interval

Ask: Given "RRIRIRPPRLPRPRPRPHPPPRP" , name the class its shrunken log2 fold change places it in.
Reply: middle interval

Ask: Please classify: "RRIRGRPPRLPRPRPRPHNAPRP"
Reply: high interval

====

test system: Escherichia coli TOP10; test: shrunken log2 fold change of peptide-encoding DNA abundance (4.5 h post-induction vs induction); higher = less antimicrobial activity (less host growth inhibition); conditions: time post-induction: 4.5 h; library: site-saturation at positions 5, 18, 19, 20;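 also: peptides expressed intracellularly from a pBAD plasmid library in pooled LB shake-flask culture, induced with 0.3% L-arabinose, DNA abundance read by NGS, three biological replicates, DESeq2 with apeglm shrinkage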
property_measured: shrunken log2 fold change
No unit in the answer, please; the number alone is enough.

RRIRNRPPRLPRPRPRPMTEPRP :: 0.00748

// sequence "RRIRFRPPRLPRPRPRPKKDPRP" , assay Escherichia coli TOP10, shrunken log2 fold change value: 0.184

The sequence "RRIRIRPPRLPRPRPRPIEDPRP" , tested on Escherichia coli TOP10, showed shrunken log2 fold change of 0.0806

For "RRIRSRPPRLPRPRPRPINDPRP" on Escherichia coli TOP10, measured shrunken log2 fold change was -0.113

Field shrunken log2 fold change (system: Escherichia coli TOP10) for entry "RRIRTRPPRLPRPRPRPGYKPRP" = -0.275

Fill in: Escherichia coli TOP10 shrunken log2 fold change for "RRIRTRPPRLPRPRPRPHFTPRP" = -0.149

Lab note: sequence "RRIRVRPPRLPRPRPRPVSVPRP" tested on Escherichia coli TOP10; recorded shrunken log2 fold change was 0.0195

Escherichia coli TOP10 assay, sequence "RRIRDRPPRLPRPRPRPQRGPRP" , recorded shrunken log2 fold change = 0.0499
